Would you kindly list inhibition for each of these compounds?
Molecular target: Voltage-dependent N-type calcium channel subunit alpha-1B (Homo sapiens)
Test: disruptors of CaV2.2 binding to Mint1 – biochemical, HTRF (AID 2073)
Details: HTRF protein-protein interaction, Mint1-CaV2.2; at 20 µM; hits give high values
The whole screen tested about 290,000 compounds, of which about 570 (0.2%) were called active. Roughly 1% stayed inconclusive and do not appear here. The full list was thinned out, with actives kept by preference.
Numbers only, in %.

compound="COc1cc2c(cc1NC(=O)C(C)OC(=O)c1ccc(S(=O)(=O)Nc3ccccc3Cl)cc1)oc1ccccc12 (stereo not given)" obs_value=56.6
compound=Cc1c(CCO)c(=O)n2c([nH]c3ccccc32)c1C#N obs_value=-2.7
compound=CCCCCCc1ccc(N2C[C@H](CCCCC)[C@@H](CC(=O)NCc3ccc(OC)cc3)C2=O)cc1 obs_value=10.1
compound="Cc1nonc1C1CCCN1Cc1cn[nH]c1-c1ccc2c(c1)OCO2 (stereo not given)" obs_value=6.8
compound=O=C(/C=C/c1ccc(Cl)cc1)N(Cc1ccccc1)c1ccccn1 obs_value=22.8
compound="CCc1ccc(OCC(=O)NC(NC(=S)Nc2ccccc2C)C(Cl)(Cl)Cl)cc1 (stereo not given)" obs_value=-12.1
compound=COc1ccccc1N=Cc1c(C)c(C#N)c2[nH]c3ccccc3n2c1=O obs_value=71.7
compound=O=C(CN1CCOCC1)Nc1cccc(S(=O)(=O)N2CCCCCC2)c1 obs_value=-5.9

# return inhibition for each item in the list
1. Cc1ccc(NC(=O)Cn2nnc(C(=O)NCc3ccc4c(c3)OCO4)c2N)cc1
2. O=c1oc2ccccc2c2oc3cc(O)c(O)cc3c12

(A)
[9.7, 20]

* * *

Target: Voltage-dependent N-type calcium channel subunit alpha-1B (Homo sapiens) (UniProt Q00975)
Sequence (Q00975 whole entry, looked up): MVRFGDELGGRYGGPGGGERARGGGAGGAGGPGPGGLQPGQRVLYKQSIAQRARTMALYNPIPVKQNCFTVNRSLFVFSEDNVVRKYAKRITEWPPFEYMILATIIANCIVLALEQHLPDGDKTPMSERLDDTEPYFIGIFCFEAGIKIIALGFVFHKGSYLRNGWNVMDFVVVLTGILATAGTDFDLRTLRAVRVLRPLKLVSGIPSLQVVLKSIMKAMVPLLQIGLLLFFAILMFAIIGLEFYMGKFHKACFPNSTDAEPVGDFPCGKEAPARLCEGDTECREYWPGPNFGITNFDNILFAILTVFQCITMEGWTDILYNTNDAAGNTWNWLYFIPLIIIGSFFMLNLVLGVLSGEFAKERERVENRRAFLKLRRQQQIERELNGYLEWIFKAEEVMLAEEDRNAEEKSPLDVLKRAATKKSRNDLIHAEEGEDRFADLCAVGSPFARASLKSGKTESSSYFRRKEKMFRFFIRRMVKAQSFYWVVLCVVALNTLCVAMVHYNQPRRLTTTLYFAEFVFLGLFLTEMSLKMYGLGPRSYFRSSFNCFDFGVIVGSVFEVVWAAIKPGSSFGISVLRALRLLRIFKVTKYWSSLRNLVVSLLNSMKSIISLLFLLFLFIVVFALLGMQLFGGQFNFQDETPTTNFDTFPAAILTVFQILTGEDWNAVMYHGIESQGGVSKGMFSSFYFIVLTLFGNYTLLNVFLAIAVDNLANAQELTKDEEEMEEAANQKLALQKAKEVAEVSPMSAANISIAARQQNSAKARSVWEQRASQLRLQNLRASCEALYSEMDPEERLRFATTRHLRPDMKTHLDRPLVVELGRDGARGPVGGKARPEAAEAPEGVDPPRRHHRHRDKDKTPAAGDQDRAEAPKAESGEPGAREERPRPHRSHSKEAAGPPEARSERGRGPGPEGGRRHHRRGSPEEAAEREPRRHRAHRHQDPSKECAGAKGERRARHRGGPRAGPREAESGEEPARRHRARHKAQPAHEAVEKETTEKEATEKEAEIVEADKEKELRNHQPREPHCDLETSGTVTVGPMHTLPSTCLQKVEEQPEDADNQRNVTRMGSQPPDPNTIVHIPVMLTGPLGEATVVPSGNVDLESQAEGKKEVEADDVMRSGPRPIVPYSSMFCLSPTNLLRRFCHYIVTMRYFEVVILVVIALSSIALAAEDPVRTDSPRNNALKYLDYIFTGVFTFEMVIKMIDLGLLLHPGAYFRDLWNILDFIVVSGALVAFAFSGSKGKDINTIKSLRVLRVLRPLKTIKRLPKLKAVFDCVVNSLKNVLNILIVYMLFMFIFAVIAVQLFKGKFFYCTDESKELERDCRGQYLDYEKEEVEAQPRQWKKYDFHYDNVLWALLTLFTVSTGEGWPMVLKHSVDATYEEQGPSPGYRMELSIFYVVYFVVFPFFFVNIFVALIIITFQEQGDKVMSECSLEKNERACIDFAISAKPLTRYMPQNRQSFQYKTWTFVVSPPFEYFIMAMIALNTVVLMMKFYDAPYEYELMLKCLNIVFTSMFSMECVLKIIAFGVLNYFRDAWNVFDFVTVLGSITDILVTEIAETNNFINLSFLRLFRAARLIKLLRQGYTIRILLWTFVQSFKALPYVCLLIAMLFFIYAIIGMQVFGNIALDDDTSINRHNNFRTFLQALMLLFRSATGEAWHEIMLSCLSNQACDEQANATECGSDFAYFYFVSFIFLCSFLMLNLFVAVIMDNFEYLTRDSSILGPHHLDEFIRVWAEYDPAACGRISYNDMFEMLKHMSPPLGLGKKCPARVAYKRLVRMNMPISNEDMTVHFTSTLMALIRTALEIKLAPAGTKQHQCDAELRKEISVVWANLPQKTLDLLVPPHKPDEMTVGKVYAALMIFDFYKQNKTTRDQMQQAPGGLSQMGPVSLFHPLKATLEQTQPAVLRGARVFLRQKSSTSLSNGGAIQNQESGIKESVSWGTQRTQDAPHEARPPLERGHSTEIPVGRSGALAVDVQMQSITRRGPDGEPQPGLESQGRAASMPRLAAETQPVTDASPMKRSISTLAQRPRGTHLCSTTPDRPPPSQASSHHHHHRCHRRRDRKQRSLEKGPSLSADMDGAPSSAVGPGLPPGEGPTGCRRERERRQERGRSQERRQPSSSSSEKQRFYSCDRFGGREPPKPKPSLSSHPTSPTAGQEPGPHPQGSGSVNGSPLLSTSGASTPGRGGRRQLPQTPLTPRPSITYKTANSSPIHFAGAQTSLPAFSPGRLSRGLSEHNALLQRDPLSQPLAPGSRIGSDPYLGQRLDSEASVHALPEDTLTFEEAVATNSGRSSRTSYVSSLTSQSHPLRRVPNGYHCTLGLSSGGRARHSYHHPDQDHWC
Assay: disruptors of CaV2.2 binding to Mint1 – biochemical, HTRF (AID 2073)
Details: HTRF protein-protein interaction, Mint1-CaV2.2; at 20 µM
Among all 290,000 compounds or so, about 570 (0.2%) were called active. Roughly 1% stayed inconclusive and do not appear here. Cut-off read from the data, not from the text of the source: active = inhibition mostly above about 51% (no sharp cut-off); inconclusive = no clear call, values can overlap the other calls; inactive = mostly below about 53%. Shown is part of a subset that was picked to be rich in actives.
Write down the outcome that applies. Available outcomes: active, inactive

The following molecules have reported results that may help.
molecule=COc1ccccc1CNC(=O)/C=C/c1ccc(Br)o1 cat=active
molecule=Cc1cc(C)cc(Nc2nc(-c3ccc(S(=O)(=O)N4CCCC4)cc3)cs2)c1 cat=active
molecule="COCCNC(=O)C(c1ccc(OC)cc1)N(CCOC)C(=O)CCC(=O)Nc1nccs1 (stereo unspecified)" cat=inactive
molecule=COc1ccccc1CNC(=O)c1ccc(Br)o1 cat=inactive
molecule=COCC(=O)N(Cc1nc2sc(C)c(C)c2c(=O)[nH]1)C1CCCCC1 cat=inactive

Consider the additional molecule presented here.
(Q) Name the outcome recorded for Oc1ccccc1Cn1nnc2ccccc21 in the assay.
(A) inactive

* * *

Molecular target: Voltage-dependent N-type calcium channel subunit alpha-1B (Homo sapiens)
Assay: disruptors of CaV2.2 binding to Mint1 – biochemical, HTRF (AID 2073)
Details: HTRF protein-protein interaction, Mint1-CaV2.2; at 20 µM; hits give high values
The whole screen tested about 290,000 compounds, of which about 570 (0.2%) were called active. About 1% were inconclusive and are not listed. The sample as a whole holds a higher share of actives than the screen did.
Note to self: values exactly at 5% are 1 (yes). So inhibition at or above 5% is 1 (yes), below is 0 (no).

The following compounds have reported results that may help.
compound=Cc1cc(C)c2nc(-c3ccccn3)cc(C(=O)Nc3ccc(S(=O)(=O)Nc4onc(C)c4C)cc3)c2c1 system="Voltage-dependent N-type calcium channel subunit alpha-1B (Homo sapiens)" cat="1 (yes)"
compound=O=c1oc2c(O)c(O)cc3c(=O)oc4c(O)c(O)cc1c4c23 system="Voltage-dependent N-type calcium channel subunit alpha-1B (Homo sapiens)" cat="1 (yes)"
compound=COc1ccc(N2CCN(CCNC(=O)Nc3cccc(C)c3C)CC2)cc1 system="Voltage-dependent N-type calcium channel subunit alpha-1B (Homo sapiens)" cat="0 (no)"
compound=Cc1cc(C)c2nc(-c3cccnc3)cc(C(=O)Nc3ccc(S(=O)(=O)Nc4onc(C)c4C)cc3)c2c1 system="Voltage-dependent N-type calcium channel subunit alpha-1B (Homo sapiens)" cat="1 (yes)"
compound=Cc1ccc(/C(C#N)=C\c2ccc(N3CCOCC3)o2)cc1 system="Voltage-dependent N-type calcium channel subunit alpha-1B (Homo sapiens)" cat="1 (yes)"
compound=CCc1ccccc1NS(=O)(=O)c1cccc2nsnc12 system="Voltage-dependent N-type calcium channel subunit alpha-1B (Homo sapiens)" cat="0 (no)"
compound="CC(C)CC(=O)N1CC(C)N(C(=O)CC(C)C)CC1C (stereo not given)" system="Voltage-dependent N-type calcium channel subunit alpha-1B (Homo sapiens)" cat="0 (no)"
compound=Cc1cc(C)c2nc(-c3ccccn3)cc(C(=O)Nc3ccc(S(=O)(=O)Nc4cc(C)on4)cc3)c2c1 system="Voltage-dependent N-type calcium channel subunit alpha-1B (Homo sapiens)" cat="1 (yes)"

(Q) # check: inhibition of N#C/C(=C/c1ccc(N2CCOCC2)o1)c1ccc(Cl)cc1 is greater than or equal to 5%
(A) 1 (yes)
